studyTarget: Interleukin-1 receptor-like 1 (Homo sapiens) (UniProt Q01638)
Sequence (Q01638 whole entry, looked up): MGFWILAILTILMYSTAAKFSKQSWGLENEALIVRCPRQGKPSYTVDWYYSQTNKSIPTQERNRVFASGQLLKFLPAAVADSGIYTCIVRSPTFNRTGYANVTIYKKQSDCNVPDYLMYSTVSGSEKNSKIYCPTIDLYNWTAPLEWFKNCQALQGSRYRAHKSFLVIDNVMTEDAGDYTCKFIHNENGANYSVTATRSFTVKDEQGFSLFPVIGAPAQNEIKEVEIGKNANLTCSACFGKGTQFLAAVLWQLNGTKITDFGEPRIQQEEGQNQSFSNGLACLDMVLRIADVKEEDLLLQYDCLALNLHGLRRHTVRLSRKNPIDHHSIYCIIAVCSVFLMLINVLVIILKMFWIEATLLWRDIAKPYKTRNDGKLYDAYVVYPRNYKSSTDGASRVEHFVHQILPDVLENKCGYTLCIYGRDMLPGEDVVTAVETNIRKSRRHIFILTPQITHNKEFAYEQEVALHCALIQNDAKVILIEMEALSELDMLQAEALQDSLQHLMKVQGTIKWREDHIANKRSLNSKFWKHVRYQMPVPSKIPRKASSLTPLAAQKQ
protocolText: inhibitors of human ST2 (IL1RL1) binding to IL-33, primary screen, biochemical, AlphaLISA (AID 1259354)
testConditions: AlphaLISA ST2-Fc/biotin-IL-33 interaction, 1 h; at 17 µM
Among all 78,000 compounds or so, about 1,800 (2.3%) were called active. Not shown: some 27% with an inconclusive outcome. Rule as the data show it: active = inhibition above about 30%; inconclusive = mostly about 10% to 28%; inactive = weaker than that. This excerpt belongs to a sample that is enriched for actives.
Classes used: class 1 for active, class 0 for inactive

- chemicalStructure: "O=C(O)Cn1c2ccccc2c2cc(Cl)ccc21"
  studyTarget: "Interleukin-1 receptor-like 1 (Homo sapiens) (UniProt Q01638)"
  groupLabel: "class 0"
- chemicalStructure: "O=C(COc1ccc([N+](=O)[O-])cc1)Nc1ccc(N2CCCC2)cc1"
  studyTarget: "Interleukin-1 receptor-like 1 (Homo sapiens) (UniProt Q01638)"
  groupLabel: "class 1"
- chemicalStructure: "COc1ccc(CCNS(=O)(=O)c2cccc3cccnc23)cc1OC"
  studyTarget: "Interleukin-1 receptor-like 1 (Homo sapiens) (UniProt Q01638)"
  groupLabel: "class 0"
- chemicalStructure: "O=S(=O)(c1ccccc1)N1CCN(c2cc(-c3ccc(F)cc3)ncn2)CC1"
  studyTarget: "Interleukin-1 receptor-like 1 (Homo sapiens) (UniProt Q01638)"
  groupLabel: "class 0"
- chemicalStructure: "CCCOc1ccccc1/C=C1/C(=O)N=C(N)N1C"
  studyTarget: "Interleukin-1 receptor-like 1 (Homo sapiens) (UniProt Q01638)"
  groupLabel: "class 0"
- chemicalStructure: "O=C(Cn1c2ccccc2c(=O)c2ccccc21)Nc1ccccc1Cl"
  studyTarget: "Interleukin-1 receptor-like 1 (Homo sapiens) (UniProt Q01638)"
  groupLabel: "class 0"

---

studyTarget: Interleukin-1 receptor-like 1 (Homo sapiens)
protocolText: inhibitors of human ST2 (IL1RL1) binding to IL-33, primary screen, biochemical, AlphaLISA (AID 1259354)
testConditions: AlphaLISA ST2-Fc/biotin-IL-33 interaction, 1 h; at 17 µM
About 1,800 (2.3%) of roughly 78,000 compounds were called active. About 27% were inconclusive and are not listed. Rule as the data show it: active = inhibition above about 30%; inconclusive = mostly about 10% to 28%; inactive = weaker than that. Only a selection was taken, and actives are over-represented in it overall.
Classes used: active, inactive

- compound: "CC(=O)C1=C(C)OC(N)=C(C#N)C1c1ccccc1 (centres undefined)"
  groupLabel: "inactive"
- compound: "COc1ccc(NS(=O)(=O)c2ccc(Cl)cc2)cc1"
  groupLabel: "inactive"
- compound: "CCOc1ccc(NS(=O)(=O)c2ccc(NC(=O)c3ccccc3Br)cc2)cc1"
  groupLabel: "inactive"
- compound: "CSc1ccccc1NC(=O)c1cc(-c2ccc(Br)cc2)on1"
  groupLabel: "inactive"
- compound: "CCCCNC(=O)CNC(=O)Cn1ccc2ccccc2c1=O"
  groupLabel: "inactive"
- compound: "CCOc1ccc(S(=O)(=O)N=C2C=C(Nc3ccc(C)cc3)C(=O)c3ccccc32)cc1"
  groupLabel: "active"
- compound: "O=C(CN1C(=O)CC(c2ccccc2)Sc2ccccc21)NCc1ccco1 (centres undefined)"
  groupLabel: "inactive"
- compound: "Fc1cccc(CC2CN(Cc3cn[nH]c3-c3ccccc3)CCO2)c1 (centres undefined)"
  groupLabel: "inactive"
- compound: "Cc1[nH]c2ccc(CNC(=O)[C@@H](O)Cc3ccccc3)cc2c1C"
  groupLabel: "inactive"
- compound: "COCCn1ccnc1-c1[nH]cnc1-c1ccccc1"
  groupLabel: "inactive"
- compound: "CC(=O)Nc1ccc(S(=O)(=O)NCCNc2ccc([N+](=O)[O-])cc2Cl)cc1"
  groupLabel: "inactive"
- compound: "O=C(O)c1cc(Br)ccc1N=Cc1nc(-c2ccccc2)oc1O"
  groupLabel: "inactive"
- compound: "CN1CCN(CCCNC(=O)COc2ccc3c(c2)C(=O)CC(C)(C)O3)CC1"
  groupLabel: "inactive"
- compound: "CCOc1ccc(C(=O)NC2CC(=O)N(c3ccc(OCC)cc3)C2)cc1 (centres undefined)"
  groupLabel: "inactive"
- compound: "c1ccc(-c2csc3ncnc(N4CCCCC4)c23)cc1"
  groupLabel: "inactive"
- compound: "CSCCC(NS(=O)(=O)c1cccc2nsnc12)C(=O)O (centres undefined)"
  groupLabel: "inactive"
- compound: "FC(F)(F)c1ccnc(NCc2cccnc2-n2ccnc2)c1"
  groupLabel: "inactive"
- compound: "CC1=C(C(N)=O)C(c2ccccc2Cl)n2ncnc2N1 (centres undefined)"
  groupLabel: "inactive"
- compound: "COc1cccc(N2CCN(Cc3cccs3)CC2)c1"
  groupLabel: "inactive"
- compound: "O=C(CCCc1ccccc1)NC1CCCCC1"
  groupLabel: "inactive"
- compound: "CN(C)C(=O)c1ccc(S(=O)(=O)NC2CCCCCC2)s1"
  groupLabel: "inactive"
- compound: "N#Cc1c(SCC(=O)Nc2ccccc2)ncc2cc3ccccc3nc12"
  groupLabel: "active"
- compound: "N#Cc1c(-c2ccccc2)cc(-c2ccccc2)nc1SCC(=O)O"
  groupLabel: "inactive"
- compound: "Cc1cc(NC(=O)c2ccccc2Cl)nc2c1c(=O)oc1ccccc12"
  groupLabel: "inactive"

Values compiled from PubChem BioAssay AID1259354.
